System: A549
Test: Antiproliferative activity against human A549 cells after 72 hrs by cell titer glo assay
Format: functional, cell-based
Conditions: A549, 72 h
Overview of reported IC50 across a group of compounds:

COMPOUND | IC50
Cn1c(N2N=C(c3ccc(Cl)cc3)CC2c2ccccc2)nc(-c2ccc(Cl)cc2)c(C#N)c1=O (configuration not stated) | 43.9 µM
Cn1c(N2N=C(c3ccccc3)CC2c2ccc(F)cc2)nc(-c2ccccc2)c(C#N)c1=O (configuration not stated) | 39.2 µM
Cn1c(N2N=C(c3ccccc3)CC2c2ccccc2)nc(-c2ccccc2)c(C#N)c1=O (configuration not stated) | 52.9 µM
Cc1ccc(C2=NN(c3nc(-c4ccc(Cl)cc4)c(C#N)c(=O)n3C)C(c3ccc(F)cc3)C2)cc1 (configuration not stated) | 35.6 µM
COc1ccc(C2CC(c3ccccc3)=NN2c2nc(-c3ccc(Cl)cc3)c(C#N)c(=O)n2C)cc1 (configuration not stated) | 23.8 µM
Cn1c(N2N=C(c3ccccc3)CC2c2ccc(Cl)cc2)nc(-c2ccc(Cl)cc2)c(C#N)c1=O (configuration not stated) | 24.7 µM
COc1ccc(C2CC(c3ccc(Cl)cc3)=NN2c2nc(-c3ccccc3)c(C#N)c(=O)n2C)cc1 (configuration not stated) | 6.07 µM
Cn1c(N2N=C(c3ccccc3)CC2c2ccccc2)nc(-c2ccc(Cl)cc2)c(C#N)c1=O (configuration not stated) | 28.1 µM
Cn1c(N2N=C(c3ccccc3)CC2c2ccc(Cl)cc2)nc(-c2ccccc2)c(C#N)c1=O (configuration not stated) | 3.25 µM
Cc1ccc(C2=NN(c3nc(-c4ccccc4)c(C#N)c(=O)n3C)C(c3ccc(F)cc3)C2)cc1 (configuration not stated) | 2 µM
Cn1c(N2N=C(c3ccccc3)CC2c2ccc(F)cc2)nc(-c2ccc(Cl)cc2)c(C#N)c1=O (configuration not stated) | 27.8 µM
COc1ccc(C2CC(c3ccc(Cl)cc3)=NN2c2nc(-c3ccc(Cl)cc3)c(C#N)c(=O)n2C)cc1 (configuration not stated) | 35.6 µM
COc1cccc2c1C(=O)c1c(O)c3c(c(O)c1C2=O)C[C@@](O)(C(=O)CO)C[C@@H]3O[C@H]1C[C@H](N)[C@H](O)[C@H](C)O1 | 3.13 µM
COc1ccc(C2CC(c3ccccc3)=NN2c2nc(-c3ccccc3)c(C#N)c(=O)n2C)cc1 (configuration not stated) | 1.76 µM
Cn1c(N2N=C(c3ccc(Cl)cc3)CC2c2ccccc2)nc(-c2ccccc2)c(C#N)c1=O (configuration not stated) | 26.9 µM
COc1ccc(C2=NN(c3nc(-c4ccc(Cl)cc4)c(C#N)c(=O)n3C)C(c3ccc(OC)cc3)C2)cc1 (configuration not stated) | 39.7 µM
COc1ccc(C2=NN(c3nc(-c4ccccc4)c(C#N)c(=O)n3C)C(c3ccc(OC)cc3)C2)cc1 (configuration not stated) | 26.5 µM

---

System: MCF7
Test: Antiproliferative activity against human MCF7 cells after 72 hrs by cell titer glo assay
Type: functional, cell-based
Conditions: MCF7, 72 h
Measured IC50 values are reported for all entries that follow.

MOLECULE | IC50
Cn1c(N2N=C(c3ccccc3)CC2c2ccccc2)nc(-c2ccc(Cl)cc2)c(C#N)c1=O (stereo unspecified) | 34.4 µM
Cc1ccc(C2=NN(c3nc(-c4ccc(Cl)cc4)c(C#N)c(=O)n3C)C(c3ccc(F)cc3)C2)cc1 (stereo unspecified) | 116 µM
COc1ccc(C2CC(c3ccc(Cl)cc3)=NN2c2nc(-c3ccccc3)c(C#N)c(=O)n2C)cc1 (stereo unspecified) | 4.8 µM
Cn1c(N2N=C(c3ccccc3)CC2c2ccccc2)nc(-c2ccccc2)c(C#N)c1=O (stereo unspecified) | 35.4 µM
Cn1c(N2N=C(c3ccccc3)CC2c2ccc(F)cc2)nc(-c2ccc(Cl)cc2)c(C#N)c1=O (stereo unspecified) | 36.8 µM
Cn1c(N2N=C(c3ccccc3)CC2c2ccc(F)cc2)nc(-c2ccccc2)c(C#N)c1=O (stereo unspecified) | 38.1 µM
COc1ccc(C2=NN(c3nc(-c4ccc(Cl)cc4)c(C#N)c(=O)n3C)C(c3ccc(OC)cc3)C2)cc1 (stereo unspecified) | 99.8 µM
Cn1c(N2N=C(c3ccc(Cl)cc3)CC2c2ccccc2)nc(-c2ccc(Cl)cc2)c(C#N)c1=O (stereo unspecified) | 25.3 µM
Cn1c(N2N=C(c3ccc(Cl)cc3)CC2c2ccccc2)nc(-c2ccccc2)c(C#N)c1=O (stereo unspecified) | 12.2 µM
COc1ccc(C2=NN(c3nc(-c4ccccc4)c(C#N)c(=O)n3C)C(c3ccc(OC)cc3)C2)cc1 (stereo unspecified) | 127 µM
COc1ccc(C2CC(c3ccccc3)=NN2c2nc(-c3ccc(Cl)cc3)c(C#N)c(=O)n2C)cc1 (stereo unspecified) | 52.4 µM
COc1ccc(C2CC(c3ccccc3)=NN2c2nc(-c3ccccc3)c(C#N)c(=O)n2C)cc1 (stereo unspecified) | 18 µM
Cc1ccc(C2=NN(c3nc(-c4ccccc4)c(C#N)c(=O)n3C)C(c3ccc(F)cc3)C2)cc1 (stereo unspecified) | 23.1 µM
COc1ccc(C2CC(c3ccc(Cl)cc3)=NN2c2nc(-c3ccc(Cl)cc3)c(C#N)c(=O)n2C)cc1 (stereo unspecified) | 27.3 µM
Cn1c(N2N=C(c3ccccc3)CC2c2ccc(Cl)cc2)nc(-c2ccccc2)c(C#N)c1=O (stereo unspecified) | 3.28 µM
Cn1c(N2N=C(c3ccccc3)CC2c2ccc(Cl)cc2)nc(-c2ccc(Cl)cc2)c(C#N)c1=O (stereo unspecified) | 46.3 µM
